test system: PPARg:RXRa 270nM:90nM, anti-RXR (NR concentration 270 nM, RXRa partner concentration 90 nM); assay: PBM binding z-score (relative to random genomic background probes); higher = stronger binding; sequences stand for … in GC…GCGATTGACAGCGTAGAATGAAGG
// label = 1.0 if PBM binding z-score is not less than 3, otherwise 0.0

[
  {
    "chain sequence": "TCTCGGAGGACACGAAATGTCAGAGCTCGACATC",
    "category label": 0.0
  },
  {
    "chain sequence": "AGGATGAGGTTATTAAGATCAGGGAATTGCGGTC",
    "category label": 0.0
  },
  {
    "chain sequence": "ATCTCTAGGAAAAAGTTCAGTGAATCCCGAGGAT",
    "category label": 1.0
  },
  {
    "chain sequence": "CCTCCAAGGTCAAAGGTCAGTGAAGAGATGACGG",
    "category label": 1.0
  },
  {
    "chain sequence": "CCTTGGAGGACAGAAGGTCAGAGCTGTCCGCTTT",
    "category label": 0.0
  },
  {
    "chain sequence": "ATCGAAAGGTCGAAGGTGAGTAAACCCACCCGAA",
    "category label": 1.0
  }
]

* * *

Form field: PBM binding z-score (one value per entry).
tested on: THRa homodimer (NR concentration 90 nM); experiment: PBM binding z-score (relative to random genomic background probes); higher = stronger binding; sequences stand for … in GC…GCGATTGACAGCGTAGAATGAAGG

[
  {
    "chain sequence": "CGTCGAAGGTCATAGGAGGTCAGTGAAGACAGAT",
    "PBM binding z-score": 1.39
  },
  {
    "chain sequence": "ATCGAAAGGTCGAGGTGAGAATAGAGAAAGGGAA",
    "PBM binding z-score": 0.58
  },
  {
    "chain sequence": "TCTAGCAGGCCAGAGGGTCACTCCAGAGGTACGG",
    "PBM binding z-score": -0.258
  },
  {
    "chain sequence": "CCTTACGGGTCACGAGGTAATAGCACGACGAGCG",
    "PBM binding z-score": 0.849
  },
  {
    "chain sequence": "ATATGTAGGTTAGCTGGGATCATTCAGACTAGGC",
    "PBM binding z-score": -0.1
  },
  {
    "chain sequence": "ACTATTAGTTGACTTAGGGCTACCGATACGACGC",
    "PBM binding z-score": 0.349
  },
  {
    "chain sequence": "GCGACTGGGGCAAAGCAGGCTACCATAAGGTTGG",
    "PBM binding z-score": -0.688
  },
  {
    "chain sequence": "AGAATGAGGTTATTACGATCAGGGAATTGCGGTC",
    "PBM binding z-score": 0.982
  },
  {
    "chain sequence": "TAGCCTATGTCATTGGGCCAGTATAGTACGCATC",
    "PBM binding z-score": -0.671
  },
  {
    "chain sequence": "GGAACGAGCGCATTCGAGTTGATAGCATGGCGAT",
    "PBM binding z-score": -1.27
  },
  {
    "chain sequence": "TCTTGTAGATCAGCAGGTTGAGAAAGCTGGCCAA",
    "PBM binding z-score": -0.41
  },
  {
    "chain sequence": "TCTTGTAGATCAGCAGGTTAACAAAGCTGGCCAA",
    "PBM binding z-score": -0.468
  }
]
